Literature survey of pIC50 (system: Protein arginine N-methyltransferase 5 (Homo sapiens)).
Numbers only, as −log10 of the molar value.

Study these solved cases before continuing.
CON=C(C(=O)N1CCC(Nc2cc(C(=O)NC[C@H](O)CN3CCc4ccccc4C3)ncn2)CC1)C1CC1: 7.89
CNCCN(C)Cc1cccc(-c2cc(C(=O)N(C)Cc3cccc(F)c3)c3cnn(C(C)C)c3n2)c1: 5.55
CC(C)n1ncc2c(C(=O)N3CCc4ccccc4C3)cc(-c3cccc(CN(C)CCN)c3)nc21: 4.93
NCCNCc1ccc(-c2ccc3ncn(Cc4cccc(C(=O)NC5CCCC5)c4)c3c2)cc1: 7.07
Nc1ncnc2c1ncn2[C@@H]1O[C@]2(C[C@@H](Cc3ccc4cc(Cl)cnc4c3)C2)[C@@H](O)[C@H]1O: 5.26

--- query ---
Data point: "NCCNCc1ccc(-c2ccc3ncn(Cc4cccc(C(=O)NC5CCOCC5)c4)c3c2)cc1" ; pIC50 = 6.74
